Tested on: Hepatotoxicity
Test Protocol: FDA HLAED, alkaline phosphatase increase
Applied Conditions: human
Alkaline Phosphatase Increase - Index Value strictly less than 0.4 = y. Otherwise n.

For orientation, consider the following solved cases.
O=c1[nH]c(=O)n([C@H]2C[C@H](O)[C@@H](CO)O2)cc1C(F)(F)F [TRIFLURIDINE]	y
CCCCCCC(C)(C)c1cc(O)c2c(c1)OC(C)(C)C1CCC(=O)CC21 (stereo not drawn) [NABILONE]	y
C[C@H]1O[C@H](O[C@H]2[C@H](O)[C@@H](O)[C@@H](O[C@H]3[C@H](O)[C@@H](O)C(O)O[C@@H]3CO)O[C@@H]2CO)[C@H](O)[C@@H](O)[C@@H]1N[C@H]1C=C(CO)[C@@H](O)[C@H](O)[C@H]1O (stereo partly drawn) [ACARBOSE]	y
CCCN1CCCC[C@H]1C(=O)Nc1c(C)cccc1C [ROPIVACAINE]	y

Task: Is Alkaline Phosphatase Increase - Index Value strictly under 0.4 for the entry Clc1ccc2nsnc2c1NC1=NCCN1 [TIZANIDINE] ?
Output: n

Task: Determine if Cc1ncc([N+](=O)[O-])n1CCO [METRONIDAZOLE] shows Alkaline Phosphatase Increase - Index Value strictly lower than 0.4.
Output: n

Task: Find out if reported Alkaline Phosphatase Increase - Index Value for N[C@@H](C(=O)N[C@@H]1C(=O)N2C(C(=O)O)=C(Cl)CS[C@H]12)c1ccccc1 [CEFACLOR ANHYDROUS] is less than 0.4
Output: n

---

System: Hepatotoxicity
Test Protocol: FDA HLAED, alkaline phosphatase increase
Applied Conditions: human
Entries and their Alkaline Phosphatase Increase - Index Value

// below: answered compounds
Cc1nccn1CC1CCc2c(c3ccccc3n2C)C1=O (stereo not drawn) [ONDANSETRON]	0.5
Cn1nnnc1SCC1=C(C(=O)O)N2C(=O)[C@@H](NC(=O)[C@H](O)c3ccccc3)[C@H]2SC1 [CEFAMANDOLE]	0
Nc1ccn([C@@H]2CS[C@H](CO)O2)c(=O)n1 [LAMIVUDINE]	2.1

Task: Give its Alkaline Phosphatase Increase - Index Value value. Item: CC(C)NCC(O)COc1cccc2[nH]ccc12 (stereo not drawn) [PINDOLOL]
Output: 1

Task: Name the recorded Alkaline Phosphatase Increase - Index Value for O=C(O)CCCCCCCC(=O)O [AZELAIC ACID] .
Output: 0

Task: Bench note: what Alkaline Phosphatase Increase - Index Value did CC(C(=O)O)c1cccc(C(=O)c2ccccc2)c1 (stereo not drawn) [KETOPROFEN] show?
Output: 0.6

Task: What does the data say about its Alkaline Phosphatase Increase - Index Value? Entry: CC[C@H]1OC(=O)[C@H](C)[C@@H](O[C@H]2C[C@@](C)(OC)[C@@H](O)[C@H](C)O2)[C@H](C)[C@@H](O[C@@H]2O[C@H](C)C[C@H](N(C)C)[C@H]2O)[C@](C)(OC)C[C@@H](C)C(=O)[C@H](C)[C@@H](O)[C@]1(C)O [CLARITHROMYCIN]
Output: 3.1

Task: What does the data say about its Alkaline Phosphatase Increase - Index Value? Entry: NCCC(O)(P(=O)(O)O)P(=O)(O)O [PAMIDRONIC ACID]
Output: 16.6

---

System: Hepatotoxicity
Test Protocol: FDA HLAED, alkaline phosphatase increase
Applied Conditions: human
Assay Endpoint: Alkaline Phosphatase Increase - Number of Reports

Worked examples follow.
CCn1cc(C(=O)O)c(=O)c2cc(F)c(N3CCNCC3)nc21	< 4
CCCN1C[C@H](CSC)C[C@@H]2c3cccc4[nH]cc(c34)C[C@H]21 [PERGOLIDE]	< 4
O=S(=O)([O-])CCS.[Na+]	< 4
O=C1NC(c2ccccc2)(c2ccccc2)C(=O)N1COP(=O)(O)O	< 4
C[C@]12CC[C@@H]3c4ccc(O)cc4CC[C@H]3[C@@H]1CC[C@@H]2OC(=O)CCC1CCCC1 [ESTRADIOL CYPIONATE]	>= 4

Task: Need Alkaline Phosphatase Increase - Number of Reports of Cn1c(=O)c2[nH]cnc2n(C)c1=O.O , thanks.
Output: < 4

Task: Please look up its Alkaline Phosphatase Increase - Number of Reports: CC(C(=O)O)c1ccc(C(=O)c2cccs2)cc1 (stereo not given)
Output: < 4

Task: Look up Alkaline Phosphatase Increase - Number of Reports for this molecule: CCOC(=O)[C@H](CCc1ccccc1)N[C@H]1CCc2ccccc2N(CC(=O)O)C1=O
Output: < 4

Task: Requested read-out: Alkaline Phosphatase Increase - Number of Reports. Entry: CCC(=O)O[C@H]1[C@H](O[C@@H]2[C@@H](C)[C@H](O[C@H]3C[C@@](C)(OC)[C@@H](O)[C@H](C)O3)[C@@H](C)C(=O)O[C@H](CC)[C@@](C)(O)[C@H](O)[C@@H](C)C(=O)[C@H](C)C[C@@]2(C)O)O[C@H](C)C[C@@H]1N(C)C [ERYTHROMYCIN PROPIONATE]
Output: >= 4
